src = paper PMC9213889

α-amylase from hog pancreas (EC 3.2.1.1) (Sus scrofa, UniProt P00690) IC50 data
Sequence (P00690 16-511): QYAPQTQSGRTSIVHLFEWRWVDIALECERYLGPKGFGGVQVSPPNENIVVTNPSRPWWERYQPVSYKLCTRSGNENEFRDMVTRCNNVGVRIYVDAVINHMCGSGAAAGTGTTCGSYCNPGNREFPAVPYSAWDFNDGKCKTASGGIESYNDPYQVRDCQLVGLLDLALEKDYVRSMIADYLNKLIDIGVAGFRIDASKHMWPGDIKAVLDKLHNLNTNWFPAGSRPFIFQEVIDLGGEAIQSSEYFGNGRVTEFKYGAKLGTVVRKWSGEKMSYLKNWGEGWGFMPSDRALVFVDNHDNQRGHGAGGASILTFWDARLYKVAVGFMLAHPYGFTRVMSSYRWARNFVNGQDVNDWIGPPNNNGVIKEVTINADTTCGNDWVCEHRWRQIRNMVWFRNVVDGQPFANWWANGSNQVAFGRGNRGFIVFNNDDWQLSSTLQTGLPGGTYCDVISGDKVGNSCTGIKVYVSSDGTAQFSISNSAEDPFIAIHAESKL
Write the number in µM without appending the unit.

Check out these entries, answers already filled in.
* CC1(C)CC[C@]2(C(=O)O)CC[C@]3(C)C(=CCC4[C@@]5(C)C/C(=C\c6ccccc6[N+](=O)[O-])[C@H](O)C(C)(C)C5CC[C@]43C)C2C1 (stereo partly shown) | 20.2
* Cc1ccccc1/C=C1\C[C@@]2(C)C(CC[C@]3(C)C2CC=C2C4CC(C)(C)CC[C@]4(C(=O)O)CC[C@]23C)C(C)(C)[C@H]1O (stereo partly shown) | 19.8
* CC1(C)CC[C@]2(C(=O)O)CC[C@]3(C)C(=CCC4[C@@]5(C)C/C(=C\c6ccc(Br)cc6)[C@H](O)C(C)(C)C5CC[C@]43C)C2C1 (stereo partly shown) | 19.5

query: Provide the documented IC50 with α-amylase from hog pancreas (EC 3.2.1.1) (Sus scrofa, UniProt P00690) as the system for CC1(C)CC[C@]2(C(=O)O)CC[C@]3(C)C(=CCC4[C@@]5(C)C/C(=C\c6cccc(F)c6)[C@H](O)C(C)(C)C5CC[C@]43C)C2C1 (stereo partly shown)
result: 20.3
